Assay: probe aLefty2 binding to arrayed compounds – biochemical, biotinylated probe, 635/667 nm fluorescence, primary screen (AID 1094);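 further: score merges spot fluorescence near 667 nm with spot signal-to-noise ratio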
Details: small-molecule microarray, higher = more signal
Parameter composite z-score: see the listing below.
I'd appreciate a reply containing only the number, no unit.

Task: Would you mind telling me what composite z-score value was observed for Cc1ccc(S(=O)(=O)N2C[C@@H](C(=O)O)[C@H](Sc3ccccc3)C[C@H]2c2ccccc2)cc1 ?
Result: 0.237

Next:
Task: Would you mind telling me what composite z-score value was observed for O=C1C2C=CC(C(O)c3cc(C(F)(F)F)cc(C(F)(F)F)c3)N(Nc3ccccc3)C2C(=O)N1c1ccccc1 (centres undefined) ?
Result: -0.0156

Task: Would you mind telling me what composite z-score value was observed for O=C(CS)NCCCCCNC(=O)[C@@H]1C[C@@H]2C(=O)NCC(=O)N2[C@@H]1c1cccc(OCCO)c1 ?
Result: -0.0823

Task: Would you mind telling me what composite z-score value was observed for COc1ccc(CCNC(=O)[C@@]2(c3ccc([N+](=O)[O-])cc3)CC(=O)N(CC34CC5CC(CC(C5)C3)C4)[C@@H]2c2ccc(CO)cc2I)cc1 ?
Result: -0.387

====

Parameter composite z-score: see the listing below.
Assay: small molecules captured by biotinylated probe aFST – biochemical, small-molecule microarray, fluorescence 635/667, stem cell growth factor project, primary screen (AID 1086);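 further: score merges 667 nm fluorescence with signal-to-noise of each printed compound spot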
Conditions: higher = more signal
I'd appreciate a reply containing only the number, no unit.

// known answers, use as guide
Task: Would you mind telling me what composite z-score value was observed for CC=CC(O)C1C=CC2C(=O)N(C)C(=O)C2N1N(c1ccccc1)c1ccccc1 (stereo not given) ?
Result: -0.132

Task: Would you mind telling me what composite z-score value was observed for O=C1NC(=O)C2C1C=CC(C(O)c1ccc(I)cc1)N2Nc1ccc(Cl)cc1Cl (stereo not given) ?
Result: 0.794

Task: Would you mind telling me what composite z-score value was observed for C=CCC(OC(C)=O)[C@@H]1[C@@H](N(Cc2cc3ccccc3o2)C(=O)Cc2ccc(OC)cc2)c2cc(OCCCO)ccc2N1C(=O)c1ccc2ccccc2c1 (stereo not given in full) ?
Result: -0.005

Task: Would you mind telling me what composite z-score value was observed for COCCCNC(=O)[C@@H]1c2ccccc2C(=O)N(Cc2ccccc2OC)[C@H]1c1ccc(CO)cc1 ?
Result: -0.0311

Task: Would you mind telling me what composite z-score value was observed for O=C(CS)NCCCCCNC(=O)[C@@H]1C[C@@H]2C(=O)NCC(=O)N2[C@@H]1c1ccc(O)cc1 ?
Result: -0.155

Next:
Task: Would you mind telling me what composite z-score value was observed for C=CCNC(=O)[C@@H]1[C@H]2C(=O)O[C@H](c3ccccc3)[C@H](c3ccccc3)N2[C@H](c2ccc(OCCO)cc2)[C@@]12C(=O)N(C(=O)OCCOC)c1ccc(C#CCNC(N)=O)cc12 ?
Result: 0.798

Task: Would you mind telling me what composite z-score value was observed for CCCCCCc1nc(-c2ccc(-c3ccc(Cl)c(Cl)c3)o2)c(C)c2c1[Si](C(C)C)(C(C)C)OC2 ?
Result: -0.0878

Task: Would you mind telling me what composite z-score value was observed for COC(=O)[C@@]1(Cc2ccc(F)cc2)[C@H]2c3cc(C(=O)N(C)C)n(Cc4cc(C)n(C)n4)c3C[C@H]2CN1C(=O)c1ccccc1 ?
Result: 0.967

Task: Would you mind telling me what composite z-score value was observed for CC(=O)NCCCC[C@@H]1NC(=O)[C@H]2C[C@@H](C(=O)O)[C@@H](c3ccc(O)cc3)N2C1=O ?
Result: 0.904

Task: Would you mind telling me what composite z-score value was observed for CN(C)C(=O)[C@]1(Cc2ccccc2)N=C(c2ccc(OCCCO)cc2)O[C@@H]1c1ccccc1N=[N+]=[N-] ?
Result: 0.532

Task: Would you mind telling me what composite z-score value was observed for CCOC(=O)C[C@H]1[C@H](OC(=O)c2ccc(C(=O)c3ccccc3)cc2)[C@@H](NC(=O)c2ccccc2)c2cc(OCCCO)ccc2N1C(=O)c1ccccc1 ?
Result: 0.204

Task: Would you mind telling me what composite z-score value was observed for CN1C(=O)C2C=CC(C(O)c3c(F)cccc3Cl)N(NC(=O)OC(C)(C)C)C2C1=O (stereo not given) ?
Result: 0.888

Task: Would you mind telling me what composite z-score value was observed for COC(=O)[C@@]1(Cc2ccc(OC)cc2)[C@H]2c3cc(C(=O)N(C)C)n(Cc4ccc(C(F)(F)F)nc4)c3C[C@H]2CN1C(=O)c1ccccc1 ?
Result: 0.597

Task: Would you mind telling me what composite z-score value was observed for CCCNC(=O)[C@@H]1c2ccccc2C(=O)N(Cc2ccccc2OC)[C@H]1c1ccc(CO)cc1 ?
Result: 0.274

Task: Would you mind telling me what composite z-score value was observed for NC(=O)NCC#Cc1ccc2c(c1)[C@]1(C(=O)N2)[C@H](C(=O)O)[C@H]2C(=O)O[C@H](c3ccccc3)[C@H](c3ccccc3)N2[C@@H]1c1ccc(O)cc1 ?
Result: 1.83

====

Experiment: viability profiling in MM1S myeloma cells – cell-based, resazurin fluorescence, basal, 24 h, PK04 Diversity Set, profiling panel (AID 1174);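 further: MM1S multiple myeloma cell line; test concentration not given here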
Settings: higher = more signal, called active from +8 up or from −8 down
Active and inactive are the calls of the source.
Measurement Kind: z-score

// known answers, use as guide
Task: Would you mind telling me what z-score value was observed for COC(=O)[C@@]1(Cc2ccccc2)[C@H]2c3cc(C(=O)N4CCCC4)n(Cc4c(CO)[nH]cc(C)c4=O)c3C[C@H]2CN1C(=O)c1ccccc1 ?
Result: -0.74 (inactive)

Task: Would you mind telling me what z-score value was observed for CCCC1(C(=O)OC)C=C2C(=C(c3ccccc3)C(=O)C2C)CN1 (stereo not given) ?
Result: -1.85 (inactive)

Task: Would you mind telling me what z-score value was observed for CS(=O)(=O)CCOC(=O)C1=CC(CCCO)=CC(C2CC2)N(Cc2cc3c(cc2Br)OCO3)C=C1C(=O)OCCS(C)(=O)=O (stereo not given) ?
Result: -0.134 (inactive)

Task: Would you mind telling me what z-score value was observed for CN(C)C(=O)[C@]1(Cc2ccccc2)N=C(c2ccc(OCCCO)cc2)O[C@@H]1c1ccccc1N=[N+]=[N-] ?
Result: -2.64 (inactive)

Task: Would you mind telling me what z-score value was observed for C=C(CCCC)/C(=C/C[C@@H](OC(C)=O)c1cccc(OCCO)c1)c1cnc2ccccc2c1 ?
Result: -0.657 (inactive)

Task: Would you mind telling me what z-score value was observed for CCCCN1CC=CC23O[C@@H]4/C=C\CCCOC(=O)C4[C@H]2C(=O)N(CCCCCO)[C@@H]3C1=O (stereo not given in full) ?
Result: 0.451 (inactive)

Task: Would you mind telling me what z-score value was observed for COc1ccc([C@H]2OC[C@@H]3CCC(=O)N32)cc1 ?
Result: 0.526 (inactive)

Task: Would you mind telling me what z-score value was observed for Cc1ccc(S(=O)(=O)N2C[C@@H](C(=O)O)[C@H](Sc3ccccc3)C[C@H]2c2ccccc2)cc1 ?
Result: -0.26 (inactive)

Task: Would you mind telling me what z-score value was observed for NC(=O)[C@@]1(Cc2ccccc2)N=C(c2ccc(OCCCO)cc2)O[C@H]1c1ccccc1 ?
Result: 0.597 (inactive)

Task: Would you mind telling me what z-score value was observed for CCOC(=O)C[C@H]1[C@H](OC(=O)c2ccc(-c3ccccc3)cc2)[C@@H](NC(=O)c2ccccc2)c2cc(OCCCO)ccc2N1C(=O)c1ccc2ccccc2n1 ?
Result: -0.397 (inactive)

Next:
Task: Would you mind telling me what z-score value was observed for C=CCC(OC(C)=O)[C@@H]1[C@@H](N(Cc2ccc(-c3ccccc3)cc2)C(=O)Cc2ccc(F)cc2)c2cc(OCCCO)ccc2N1C(=O)c1ccc2ccccc2c1 (stereo not given in full) ?
Result: 0.376 (inactive)

Task: Would you mind telling me what z-score value was observed for [N-]=[N+]=Nc1ccccc1C[C@]1(C(=O)N2CCCCC2)COC(c2ccc(OCCCO)cc2)=N1 ?
Result: -0.823 (inactive)

Task: Would you mind telling me what z-score value was observed for [N-]=[N+]=NCc1ccccc1[C@@H]1OC(c2ccc(OCCCO)cc2)=N[C@]1(CCS(=O)(=O)c1ccccc1)C(=O)N1CCOCC1 ?
Result: 0.543 (inactive)

Task: Would you mind telling me what z-score value was observed for C=CCNC(=O)[C@@H]1[C@H]2C(=O)O[C@H](c3ccccc3)[C@H](c3ccccc3)N2[C@H](c2ccc(OCCO)cc2)[C@@]12C(=O)N(C(=O)OCCOC)c1ccc(C#CCC(C(=O)OC)C(=O)OC)cc12 ?
Result: 0.351 (inactive)

Task: Would you mind telling me what z-score value was observed for COC(=O)[C@@]1(Cc2ccc(F)cc2)[C@H]2c3cc(C(=O)N(C)C)n(Cc4cc(C)n(C)n4)c3C[C@H]2CN1C(=O)c1ccccc1 ?
Result: -0.943 (inactive)

====

Parameter composite z-score: see the listing below.
Test: small molecules captured by biotinylated probe aFGF2 – biochemical, small-molecule microarray, fluorescence 635/667, stem cell growth factor project, primary screen (AID 1067);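 further: measures binding of biotinylated aFGF2 protein to printed compounds on slides; z-score merges feature fluorescence and signal-to-noise across triplicate slides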
Settings: higher = more signal

Task: Would you mind telling me what composite z-score value was observed for NCCCCCNC(=O)[C@H]1C[C@H]2C(=O)N3CCC[C@H]3C(=O)N2[C@H]1c1ccc(O)cc1 ?
Result: 0.197

Task: Would you mind telling me what composite z-score value was observed for CN1C(=O)C2C=CC(C(O)C=Cc3ccc([N+](=O)[O-])cc3)N(Nc3ccccc3)C2C1=O (stereo unspecified) ?
Result: 0.0411

Task: Would you mind telling me what composite z-score value was observed for COc1ccc(C#Cc2ccc3c(c2)[C@]2(C(=O)N3)[C@H](c3ccc(O)cc3)N3[C@H](c4ccccc4)[C@H](c4ccccc4)OC(=O)[C@H]3[C@@H]2C(=O)N2CCc3cc(OC)c(OC)cc3C2)cc1 ?
Result: 0.0106

Next:
Task: Would you mind telling me what composite z-score value was observed for C=C(CCCC)/C(=C/C[C@@H](OC(C)=O)c1ccccc1OCCO)c1cc(C(=O)OC)ccc1OC ?
Result: -0.0996

Task: Would you mind telling me what composite z-score value was observed for C=C(CCCC)C(=O)CC[C@H](OC(=O)c1cccnc1)c1ccc(OCCO)cc1 ?
Result: -0.116

Task: Would you mind telling me what composite z-score value was observed for C#CCN(C/C=C/c1ccccc1)[C@H](CO)c1ccccc1 ?
Result: -0.182

Task: Would you mind telling me what composite z-score value was observed for O=C1C2C=CC(C(O)c3ccc(-c4ccccc4)s3)N(Nc3ccccc3)C2C(=O)N1c1ccccc1 (stereo unspecified) ?
Result: 0.198
